system: SK-OV-3; assay: NCI tumour cell line growth inhibition, 48 h
The source made the active and inactive calls. No stated cut-off is given here; in the data, active = GI50 up to about 1.1 µM and inactive = higher.
Consider the following compounds and their measured GI50 readings.

C=CCCN1CCc2c([nH]c3ccccc23)C1C(=O)O (stereo not given)
> 100 µM (inactive)
CCN(CC)c1cccc2c1/C(=N/O)CCCC2
> 100 µM (inactive)
CCOC(=O)c1ccc2nc(NC(=O)COC(=O)CSc3nc(C)cc(C)n3)sc2c1
32.5 µM (inactive)
CCN(CC)CCNc1ccc2nnn3c4ccc(O)cc4c(=O)c1c23
8.22 µM (inactive)
Cc1ccc(/C=C/C(=O)c2c([O-])on[n+]2-c2ccccc2)cc1
8.09 µM (inactive)
Clc1cc(OCC23CC4CC(CC(C4)C2)C3)nc(OCC23CC4CC(CC(C4)C2)C3)n1
> 100 µM (inactive)

Name the recorded GI50 for COc1ccc(/C=C(/C#N)C(N)=O)cc1OC . > 100 µM (inactive)
